# credit: patent US9115093B2

Experiment: Drug transport across human CACO-2 cells
Assay type: in vitro ADME
Settings: Caco-2 monolayers, basal-to-apical, pH 7.2, 37° C., read-out: PEBA
outcome measure: Papp B→A at 10 nM (×10⁻⁶ cm/s)

compound: N#Cc1ccc(C2C3=C(CCCC3=O)N(c3cccc(C(F)(F)F)c3)C(=O)N2C(=O)NCCO)cc1 (centres unmarked)
outcome measure: Papp B→A at 10 nM
result number: 76.5
--
compound: CN(C)CCNC(=O)N1C(=O)N(c2cccc(C(F)(F)F)c2)C2=C(C(=O)CCC2)C1c1ccc(C#N)cc1 (centres unmarked)
outcome measure: Papp B→A at 10 nM
result number: 80.7
